System: IGROV1 ovarian
Assay: NCI tumour cell line growth inhibition, 48 h
Property label: GI50

Q: Supply GI50 value. Item: "COc1cc(-n2cncc2-c2ccc3ccccc3c2)cc(OC)c1OC"
Ans: 0.0872 µM

Q: Supply GI50 value. Item: Nc1nc2c(c3cnccc13)C(c1cccc(Br)c1)Cc1cnccc1-2 (stereo unspecified)
Ans: 0.85 µM

* * *

Tested on: SR leukemia
Assay: NCI tumour cell line growth inhibition, 48 h; in the data active = GI50 below about 0.43 µM; inactive = the rest
Your reply should match one of these outcome classes. 1.0 = active, 0.0 = inactive

These solved cases illustrate the format of a correct answer.
{"columns": ["Compound", "Target under test", "Answer label"],
 "data": [
  ["CC1(C)CCC(S(=O)(=O)c2ccc3c(c2)/C(=N\\O)c2cc(S(=O)(=O)N4CCN(c5ccc(F)cc5O)CC4)ccc2-3)CC1", "SR leukemia", 1.0],
  ["Cn1cc(C2=C(Sc3ccccc3)C(=O)NC2=O)c2ccccc21", "SR leukemia", 0.0],
  ["Nc1nc2c(c3cnccc13)C(c1cccc(Br)c1)Cc1cnccc1-2 (stereo not given)", "SR leukemia", 1.0],
  ["COc1ccc2c(c1)N(CCO)C1=C(C(=O)OC1)C2c1cc(OC)c(OC)c(OC)c1 (stereo not given)", "SR leukemia", 1.0]
]}

Q: I would be grateful if you could indicate the recorded call for "O=C1C=CC(=O)c2c1c1c(c3c2C2c4ccccc4C3c3ccccc32)C2c3ccccc3C1c1ccccc12" .
Ans: 1.0

* * *

Test system: HOP-92 NSCLC
Assay: NCI tumour cell line growth inhibition, 48 h
Known log10 of TGI of a selection of molecules
Please keep in mind that the values are log10 of TGI expressed in µM.

Here's what some known entries look like.
{"columns": ["Molecule", "log10 of TGI"],
 "data": [
  ["CC#Cc1nc2ccccc2c(=O)[nH]1", 0.89],
  ["CCN1CCN(c2cc(C)nc(N(CCCNc3ccnc4cc(Cl)ccc34)Cc3cccs3)n2)CC1", 0.58],
  ["CC(=O)Nc1cc(C(=O)Nc2cc(C(=O)Nc3cc(C(=O)Nc4cc(C(=O)Nc5cc(C(=O)NCCC(=O)NCCCN(C)C)n(C)c5)n(C)c4)n(C)c3)n(C)c2)n(C)c1", 1.88],
  ["CN(CCNC(=O)c1[nH]nc2c1Cc1ccccc1-2)CCNC(=O)c1[nH]nc2c1Cc1ccccc1-2", 1.54]
]}

Q: # lookup: HOP-92 NSCLC log10 of TGI, key = "O=C1/C(=C/c2ccc3c(c2)CCC3)Cc2cc3c(cc21)CCC3"
Ans: 1.99

Q: # lookup: HOP-92 NSCLC log10 of TGI, key = CC(=O)Oc1ccc2c(c1OC(C)=O)CCC1C2=CC[C@]2(C)C(=O)CCC12 (some centres not stated)
Ans: 1.35

Q: # lookup: HOP-92 NSCLC log10 of TGI, key = "COc1ccc(Nc2nc3cc(C(F)(F)F)ccc3nc2C(=O)O)cc1OC"
Ans: 1.87

* * *

System: HL-60(TB) leukemia
Experiment: NCI tumour cell line growth inhibition, 48 h
Property label: GI50

Here's what some known entries look like.
{"columns": ["Input smiles", "GI50"],
 "data": [
  ["O=c1c2cc(I)ccc2nc(-c2cccs2)n1-c1ccc(S(=O)(=O)Nc2nccs2)cc1", "50400 nM"],
  ["CC(C)(O)c1coc(S(=O)(=O)/N=C(\\O)Nc2c3c(cc4c2CCC4)CCC3)c1", "> 100000 nM"],
  ["CCOC(=O)c1ccc2c(c1)c1c(C)c3ccncc3c(C)c1n2C", "1160 nM"],
  ["Nc1nc(-c2cccc3ccccc23)cc2ccccc12", "232 nM"]
]}

Q: Supply GI50 value. Item: "Cc1cccc(NC(=O)c2sc3nc4c(cc3c2N)CCCC4)c1"
Ans: 2360 nM

Ref: PubChem BioAssay (NCI)
